Property: CC50; scope: individual compounds
Tested on: U-87 MG
protocol_text: Cytotoxicity against human U87 cells assessed as reduction in cell viability
Assay type: toxicity, cell-based
test_context: u-87mg atcc

Worked examples, 2 compounds total:
stdin: // CC50 lookup, key: COc1cccc(/C=C/c2nc3ccc(N4CCOCC4)cc3c(=O)n2-c2cccc(C(C)(C)C)c2)n1
stdout: > 20 µM

stdin: Try this compound next: COc1cccc(/C=C/c2nc3ccc(N4CCCCC4)cc3c(=O)n2-c2cccc(C(C)(C)C)c2)n1
stdout: > 20 µM

The record that follows has no CC50 shown yet.
stdin: // CC50 lookup, key: COc1cccc(-n2c(/C=C/c3cccc(OC)n3)nc3ccc(N4CCCCC4)cc3c2=O)c1
stdout: > 20 µM

----------
System: Zika virus
protocol_text: Antiviral activity against ZIKV FLR infected in human U87 cells assessed as inhibition of viral replication pretreated with compounds for 2 hrs followed by replacement with fresh medium containing compound and measured after 48 hrs by MTT assay
Format: functional, organism-based
test_context: U-87 MG
Property: pEC50; scope: individual compounds
Lab note: report pEC50 as minus log10 of the concentration in molar units, number only.

Worked examples, 2 compounds total:
stdin: // pEC50 lookup, key: COc1cccc(-n2c(/C=C/c3cccc(OC)n3)nc3ccc(N4CCCCC4)cc3c2=O)c1
stdout: 6.16

stdin: Try this compound next: COc1cccc(/C=C/c2nc3ccc(N4CCCCC4)cc3c(=O)n2-c2cccc(C(C)(C)C)c2)n1
stdout: 6.09

Next:
stdin: // pEC50 lookup, key: COc1cccc(/C=C/c2nc3ccc(N4CCOCC4)cc3c(=O)n2-c2cccc(C(C)(C)C)c2)n1
stdout: 7.00

----------
System: Zika virus
protocol_text: Antiviral activity against ZIKV HN16 infected in Vero cells assessed as inhibition of viral replication by measuring reduction in cytopathic effect preincubated with compounds for 2 hrs followed by replacement with fresh media containing compounds and measured after 48 hrs by MTT assay
Assay type: functional, organism-based
measure: EC50 (µM)
Record the value in µM, omitting the unit from your answer.

stdin: // EC50 lookup, key: COc1cccc(/C=C/c2nc3ccc(N4CCOCC4)cc3c(=O)n2-c2cccc(C(C)(C)C)c2)n1
stdout: 0.086

----------
Property: inhibition at 1 µM; scope: individual compounds
Test system: Zika virus
protocol_text: Antiviral activity against ZIKV FLR infected in Vero cells assessed as inhibition of viral replication by measuring reduction in cytopathic effect at 1 uM preincubated with compounds for 2 hrs followed by replacement with fresh media containing compounds and measured after 48 hrs by MTT assay relative to control
Type: functional
test_context: time 50 hrs
Record the value in %, omitting the unit from your answer.

Worked examples, 3 compounds total:
stdin: // inhibition at 1 µM lookup, key: COc1cccc(/C=C/c2nc3ccc(N4CCCCC4)cc3c(=O)n2-c2cccc(C(C)(C)C)c2)c1
stdout: 68.4

stdin: Try this compound next: COc1cccc(/C=C/c2nc3ccc(N4CCC(N5CCOCC5)CC4)cc3c(=O)n2-c2cccc(C)c2)n1
stdout: 0

stdin: Try this compound next: COc1cccc(/C=C/c2nc3ccc(N4CCCCC4)cc3c(=O)n2-c2cccc(C(C)(C)C)c2)n1
stdout: 90

Next:
stdin: // inhibition at 1 µM lookup, key: COc1cccc(/C=C/c2nc3ccc(N4CCC(N5CCOCC5)CC4)cc3c(=O)n2-c2cccc(C(C)(C)C)c2)n1
stdout: 90

stdin: Try this compound next: NCc1ccc(-c2ncc(OCC3CCNCC3)nc2-c2ccc(-c3ccoc3)cc2)cc1
stdout: 68

stdin: Try this compound next: CCN(CC)c1ccc2nc(/C=C/c3cccc(OC)n3)n(-c3cccc(C(C)(C)C)c3)c(=O)c2c1
stdout: 68.4

----------
Tested on: Zika virus
protocol_text: Antiviral activity against ZIKV FLR infected in Vero cells assessed as inhibition of viral replication by measuring log reduction in cytopathic effect at 10 uM preincubated with compounds for 2 hrs followed by replacement with fresh media containing compounds and measured after 48 hrs by MTT assay
Type: functional
test_context: time 50 hrs
Property: log(activity); scope: individual compounds

stdin: // log(activity) lookup, key: CCN(CC)c1ccc2nc(/C=C/c3cccc(OC)n3)n(-c3cccc(C(C)(C)C)c3)c(=O)c2c1
stdout: 3

stdin: Try this compound next: COc1ncccc1/C=C/c1nc2ccccc2c(=O)n1-c1cccc(C(C)(C)C)c1
stdout: 0.5

stdin: Try this compound next: CC(C)(C)c1cccc(-n2c(/C=C/c3ccc(C(F)(F)F)nc3)nc3ccccc3c2=O)c1
stdout: 0.5

The record that follows has no log(activity) shown yet.
stdin: // log(activity) lookup, key: COc1cccc(-n2c(/C=C/c3cccnc3)nc3ccccc3c2=O)c1
stdout: 0.5

----------
Property: inhibition at 1 µM; scope: individual compounds
System: Zika virus
protocol_text: Antiviral activity against ZIKV FLR infected in Vero cells assessed as inhibition of viral replication by measuring reduction in cytopathic effect at 1 uM preincubated with compounds for 2 hrs followed by replacement with fresh media containing compounds and measured after 48 hrs by MTT assay relative to control
Type: functional
test_context: time 50 hrs
Record the value in %, omitting the unit from your answer.

Worked examples, 3 compounds total:
stdin: // inhibition at 1 µM lookup, key: COc1cccc(/C=C/c2nc3ccc(N4CCOCC4)cc3c(=O)n2-c2cccc(C(C)(C)C)c2)n1
stdout: 90

stdin: Try this compound next: COc1cccc(/C=C/c2nc3ccc(N4CCCCC4)cc3c(=O)n2-c2cccc(C)c2)n1
stdout: 0

stdin: Try this compound next: COc1cccc(-n2c(/C=C/c3cccc(OC)n3)nc3ccc(N4CCCCC4)cc3c2=O)c1
stdout: 90

The record that follows has no inhibition at 1 µM shown yet.
stdin: // inhibition at 1 µM lookup, key: COc1cccc(-n2c(/C=C/c3cccc(OC)n3)nc3ccc(N4CCC(N5CCOCC5)CC4)cc3c2=O)c1
stdout: 68.4

Data credit: ChEMBL document CHEMBL5360632
